target_or_test_system: Aromatase (Homo sapiens)
Sequence (P11511 whole entry): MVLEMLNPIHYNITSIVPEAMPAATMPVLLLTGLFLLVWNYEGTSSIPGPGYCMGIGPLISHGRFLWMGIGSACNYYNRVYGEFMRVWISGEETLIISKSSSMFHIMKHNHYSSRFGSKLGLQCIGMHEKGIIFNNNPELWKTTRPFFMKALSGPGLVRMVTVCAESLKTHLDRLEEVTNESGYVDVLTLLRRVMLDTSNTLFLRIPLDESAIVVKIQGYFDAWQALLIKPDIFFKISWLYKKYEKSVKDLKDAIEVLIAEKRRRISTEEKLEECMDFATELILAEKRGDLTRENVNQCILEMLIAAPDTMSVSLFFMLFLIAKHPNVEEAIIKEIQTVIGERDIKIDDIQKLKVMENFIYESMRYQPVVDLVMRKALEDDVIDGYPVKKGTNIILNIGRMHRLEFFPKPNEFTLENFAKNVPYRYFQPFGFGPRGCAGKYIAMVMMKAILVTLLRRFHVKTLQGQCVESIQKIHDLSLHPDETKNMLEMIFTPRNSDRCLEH
assay_text: Inhibition of recombinant human aromatase preincubated for 10 mins followed by substrate and beta-NADP+ addition and measured for 60 mins by fluorimetric assay
readout_name: pIC50
Entry type: numeric. Quantity: pIC50, the -log10 of concentration in molar units.

mol_smiles=O=S(=O)(Cc1ccccc1)NCCc1c[nH]c2ccccc12 readout_name=pIC50 observed=6.12
mol_smiles=O=S(=O)(Cc1ccccc1)Nc1ccc2[nH]ccc2c1 readout_name=pIC50 observed=6.80
mol_smiles=O=S(=O)(NCCc1c[nH]c2ccccc12)c1ccccc1 readout_name=pIC50 observed=6.70

Entry "Cc1ccc(S(=O)(=O)Nc2ccc3cc[nH]c3c2)cc1" , pIC50 reported as 6.31

----------
target_or_test_system: Aromatase (Homo sapiens, UniProt P11511)
assay_text: Inhibition of recombinant human aromatase at 1 uM preincubated for 10 mins followed by substrate and beta-NADP+ addition and measured for 60 mins by fluorimetric assay relative to letrozole
protocol_conditions: 1 h
Classification field: enter Y for inhibition at 1 µM values not below 20%, N for values below it.

Previously resolved entries follow.
mol_smiles=O=S(=O)(NCc1ccc2[nH]ccc2c1)c1ccccc1 assigned_class=Y
mol_smiles=O=S(=O)(Cc1ccccc1)NCc1ccc2[nH]ccc2c1 assigned_class=N
mol_smiles=O=S(=O)(Cc1ccccc1)Nc1ccc2[nH]ccc2c1 assigned_class=Y
mol_smiles=O=S(=O)(Cc1ccccc1)Nc1ccc2cc[nH]c2c1 assigned_class=N
mol_smiles=Cc1ccc(S(=O)(=O)Nc2ccc3cc[nH]c3c2)cc1 assigned_class=Y

With those in mind, consider the next compound.
Q. Could you verify whether the entry "O=[N+]([O-])c1cccc(S(=O)(=O)Nc2ccc3cc[nH]c3c2)c1" shows inhibition at 1 µM of no less than 20%?
A. N

src = ChEMBL document CHEMBL4312030
